Listing of entries alongside the reported TGI.
Test system: DU-145 prostate
assay-notes: NCI tumour cell line growth inhibition, 48 h

{"compound": "CN(C)CCNc1ccc(C(=O)NCCCN(C)CCCNC(=O)c2ccc(NCCN(C)C)c3c(=O)c4ccccc4[nH]c23)c2[nH]c3ccccc3c(=O)c12", "TGI": "2.48 µM"}
{"compound": "CCOC(=O)c1cnc(-n2[nH]c(C)c(CCO)c2=O)[nH]c1=O", "TGI": "> 100 µM"}
{"compound": "COC(=O)[C@H](Cc1ccccc1)NC(=O)c1ccc(CNC(=O)/C=C/c2ccc(-c3ccccc3)cc2)cc1", "TGI": "> 100 µM"}
{"compound": "CN1C/C(=C\\c2cccs2)C2=NC(=S)NC(c3cccs3)C2C1 (centres undefined)", "TGI": "> 100 µM"}

----------
System: SNB-19 CNS
assay-notes: NCI tumour cell line growth inhibition, 48 h
Listing of entries alongside the reported TGI.
reported-endpoint: TGI

{"molecule": "N#C/C(=C\\c1ccccc1O)C(N)=O", "reported-endpoint": "TGI", "meas-value": "> 100 µM"}
{"molecule": "C1OCC2S[C@@H]3COCO[C@@H]3C2O1 (some centres not stated)", "reported-endpoint": "TGI", "meas-value": "> 100 µM"}
{"molecule": "Cc1[nH]ncc1-c1cc2nc(C3CC4CCN3CC4)[nH]c(=O)c2s1 (configuration not stated)", "reported-endpoint": "TGI", "meas-value": "> 100 µM"}
{"molecule": "O=C(c1ccccc1)c1ccc2c(c1)nc1n2C(c2c(Cl)cccc2Cl)SC1 (configuration not stated)", "reported-endpoint": "TGI", "meas-value": "> 100 µM"}
{"molecule": "C=CCNC(=S)Nc1sc2c(c1C(=O)OCC)CC(C)CC2 (configuration not stated)", "reported-endpoint": "TGI", "meas-value": "62.5 µM"}
{"molecule": "O=C1OC(=O)c2c1c(-c1ccccc1)cn2-c1ccc(Cl)cc1", "reported-endpoint": "TGI", "meas-value": "> 100 µM"}
{"molecule": "O=C(O)CSCc1cccc2ccccc12", "reported-endpoint": "TGI", "meas-value": "> 100 µM"}
{"molecule": "Cc1ccccc1NC(=S)Nc1ccccn1", "reported-endpoint": "TGI", "meas-value": "> 100 µM"}
{"molecule": "O=C(CSCC(=O)N/N=C/c1cc(I)cc(I)c1O)N/N=C/c1cc(I)cc(I)c1O", "reported-endpoint": "TGI", "meas-value": "36.6 µM"}
{"molecule": "OCC1OC(c2scc3c(=S)nc[nH]c23)C(O)C1O (configuration not stated)", "reported-endpoint": "TGI", "meas-value": "> 100 µM"}
{"molecule": "O=C(Cn1c(=O)oc2ccc(C(=O)c3ccc(F)cc3)cc21)c1ccc([N+](=O)[O-])cc1", "reported-endpoint": "TGI", "meas-value": "> 100 µM"}
{"molecule": "Cc1[nH]c2ncn(/N=C/c3ccccc3O)c(=N)c2c1Cc1ccccc1", "reported-endpoint": "TGI", "meas-value": "> 100 µM"}
{"molecule": "CCN(CC)CCNC(=O)c1ccccc1NC(=O)C(=O)Nc1ccccc1C(=O)NCCN(CC)CC", "reported-endpoint": "TGI", "meas-value": "> 100 µM"}
{"molecule": "O=C1C(N2CCCC2)=CC(=O)c2c(O)c(N3CCCC3)c(Cl)c(O)c21", "reported-endpoint": "TGI", "meas-value": "> 10 µM"}
{"molecule": "Cn1cnc([N+](=O)[O-])c1Sc1nc2cc(Cl)c(F)cc2[nH]1", "reported-endpoint": "TGI", "meas-value": "> 100 µM"}
{"molecule": "COc1cc(-c2nn3c(/C=C4/C(=O)Nc5ccccc54)c(-c4ccc(C)cc4)nc3s2)cc(OC)c1OC", "reported-endpoint": "TGI", "meas-value": "34.2 µM"}
{"molecule": "O=c1cnn(C/C=C\\CO)c(=O)[nH]1", "reported-endpoint": "TGI", "meas-value": "> 100 µM"}
{"molecule": "C=C1C(=O)OC2/C=C(\\C)C(OC(C)=O)C3OC3C(C)(O)CC(OC(=O)/C(C)=C/C)C12 (configuration not stated)", "reported-endpoint": "TGI", "meas-value": "33.7 µM"}
{"molecule": "CCC(C)[C@H](NC(=O)[C@H](Cc1ccccc1)NC(=O)N(CC)c1ccccc1)C(=O)N[C@@H](CC(C)C)C(=O)OC (some centres not stated)", "reported-endpoint": "TGI", "meas-value": "> 100 µM"}
{"molecule": "O=C(O)c1ccccc1Cc1ccco1", "reported-endpoint": "TGI", "meas-value": "> 100 µM"}
{"molecule": "N#Cc1cc(C#N)c(Cl)nc1N", "reported-endpoint": "TGI", "meas-value": "> 10 µM"}
{"molecule": "COc1ccc(Cn2c(C)nc3c2C(=O)c2ccccc2C3=O)cc1", "reported-endpoint": "TGI", "meas-value": "> 75 µM"}

----------
Listing of entries alongside the reported TGI.
Tested on: UO-31 renal
assay-notes: NCI tumour cell line growth inhibition, 48 h

{"molecule": "C1CC2=C(C1)[Se]C(=C1Sc3nsnc3S1)[Se]2", "target-under-test": "UO-31 renal", "TGI": "> 100 µM"}
{"molecule": "CN1C(=O)c2c(ccc3c2OCO3)C2C(O)Cc3cc4c(cc3C21)OCO4 (configuration not stated)", "target-under-test": "UO-31 renal", "TGI": "> 100 µM"}
{"molecule": "Cc1cc(C)nc(NC(N)=NCCc2ccccc2)n1", "target-under-test": "UO-31 renal", "TGI": "50.8 µM"}
{"molecule": "COc1c2cc([N+](=O)[O-])cc1CNC(=O)CN1CCOCCOCCN(CCOCCOCC1)CC(=O)NC2", "target-under-test": "UO-31 renal", "TGI": "> 100 µM"}
{"molecule": "CCCCNC1CCC2(SCCS2)c2[nH]c3ccccc3c21 (configuration not stated)", "target-under-test": "UO-31 renal", "TGI": "> 89.4 µM"}
{"molecule": "O=C(O)c1ccccc1.[Ag]", "target-under-test": "UO-31 renal", "TGI": "7.17 µM"}
{"molecule": "C1=C\\SS/C=C\\SS/C=C\\SS/C=C\\SS/1", "target-under-test": "UO-31 renal", "TGI": "> 100 µM"}
{"molecule": "CC(C)(C)OC(=O)CN1CCNCCNCC1", "target-under-test": "UO-31 renal", "TGI": "> 100 µM"}
{"molecule": "O=C1N[C@H]2c3c(Cl)sc(Cl)c3/C(=N/O)[C@H]2O1", "target-under-test": "UO-31 renal", "TGI": "> 100 µM"}
{"molecule": "COCOc1ccc(C(=O)C(C)c2ccc(OCOC)cc2OCOC)c(O)c1 (configuration not stated)", "target-under-test": "UO-31 renal", "TGI": "> 100 µM"}
{"molecule": "CCOC(=O)CCCn1nnc(C(=O)OCC)c1C(=O)OCC", "target-under-test": "UO-31 renal", "TGI": "> 100 µM"}
{"molecule": "Clc1ccc2c(SCC3CO3)c3ccccc3nc2c1 (configuration not stated)", "target-under-test": "UO-31 renal", "TGI": "3.34 µM"}

----------
Test system: ACHN renal
assay-notes: NCI tumour cell line growth inhibition, 48 h; in the data active = GI50 below about 0.43 µM; inactive = the rest
Possible outcomes: active, inactive

{"compound": "COc1cc2c(/C=N\\N=C(N)N)c(Cl)[nH]c2cc1C", "label-class": "inactive"}
{"compound": "Cc1ccc(C(=O)N(CCCN)[C@@H](c2nc3cc(Cl)ccc3c(=O)n2Cc2ccccc2)C(C)C)cc1", "label-class": "inactive"}
{"compound": "CC1=NN(C(=O)c2ccccc2O)C(=O)/C1=C/c1ccc([N+](=O)[O-])cc1", "label-class": "inactive"}
{"compound": "COC(=O)[C@@H](NC(=O)NC(=O)NC(=O)CI)C(C)C", "label-class": "inactive"}
{"compound": "COc1cccc([C@H]2CC(=O)c3cc4c(cc3N2)OCO4)c1", "label-class": "active"}
{"compound": "O=S(=O)(Nc1ncccn1)c1ccc(N=Nc2ccc(O)c3ncccc23)cc1", "label-class": "inactive"}
{"compound": "CN(C)CCCOc1ccccc1NC1=C(Cl)C(=O)C(Nc2ccccc2OCCCN(C)C)=C(Cl)C1=O", "label-class": "inactive"}
{"compound": "Cc1nc2sccn2c1/C=C1/C(=O)Nc2ccccc21", "label-class": "inactive"}
{"compound": "Cc1[nH]ncc1-c1cc2nc(C3CC4CCN3CC4)[nH]c(=O)c2s1 (centres undefined)", "label-class": "inactive"}
{"compound": "Cc1cc(C)nc(NC(N)=NCCc2ccccc2)n1", "label-class": "inactive"}
{"compound": "COc1ccc(C#Cc2ccccc2C#CCCCCO)cc1", "label-class": "inactive"}
{"compound": "Cc1ccccc1NC(=S)Nc1ccccn1", "label-class": "inactive"}
{"compound": "O=P([O-])(O)OP(=O)([O-])O.[NH-][C@H]1CCCC[C@@H]1[NH-].[OH-].[OH-].[Pt+4]", "label-class": "inactive"}
{"compound": "CC(=O)C1=C(O)C=C2Oc3c(C(=O)/C=C/c4cc(C(F)(F)F)cc(C(F)(F)F)c4)c(O)c(C)c(O)c3[C@]2(C)C1=O", "label-class": "inactive"}
